B1: LINE1-full (parent)
chain: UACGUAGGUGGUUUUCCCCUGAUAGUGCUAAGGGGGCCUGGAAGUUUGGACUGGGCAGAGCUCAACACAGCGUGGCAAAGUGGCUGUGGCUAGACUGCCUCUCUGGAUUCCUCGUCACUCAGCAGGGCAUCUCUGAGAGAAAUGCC

Variants of: B1
assay-summary: self-cleavage, relative activity (ratio to wild type); higher = more cleavage; in vitro, sequencing; the parent is a self-cleaving ribozyme
Our labelling divides records by self-cleavage into ranges: low interval (below 0.4), middle interval (0.4 to below 1), high interval (1 or more)

{"mutant-designation": "C61U U73C", "label-class": "low interval"}

Task: Field: class (self-cleavage) — entry: U87C A121G
Output: low interval

Task: Field: class (self-cleavage) — entry: U12G C120A
Output: high interval

Task: Field: class (self-cleavage) — entry: A24G U26C
Output: middle interval

Task: Field: class (self-cleavage) — entry: A59U A121U
Output: middle interval

Task: Field: class (self-cleavage) — entry: A6G A31G
Output: middle interval

Task: Field: class (self-cleavage) — entry: A22G U87C
Output: low interval

Task: Field: class (self-cleavage) — entry: C113U G126A
Output: high interval

Task: Field: class (self-cleavage) — entry: A24G U119C
Output: middle interval

Task: Field: class (self-cleavage) — entry: C16U U62C
Output: low interval

Task: Field: class (self-cleavage) — entry: C84A U130C
Output: low interval

Task: Field: class (self-cleavage) — entry: G83A G97C
Output: low interval
